pKd: −log10 of the molar value.
pKd tested on DYRK1A (Homo sapiens, UniProt Q13627): recorded values

compound: Cc1nc2ccc(-c3ccnc(N)c3)nc2n1-c1ccc(N2CCN(CC#Cc3cncc(N4CCC(C(=O)N5CCC(n6cc(CNc7cccc8c7C(=O)N(C7CCC(=O)NC7=O)C8=O)cn6)CC5)CC4)n3)CC2)c(F)c1 (stereo not shown)
pKd: 7.00 to 8.00

In: Need pKd, item Cc1nc2ccc(-c3ccnc(N)c3)nc2n1-c1ccc(N2CCN(CC#Cc3ccc(C4(C(=O)N5CCC(n6cc(CNc7cccc8c7C(=O)N(C7CCC(=O)NC7=O)C8=O)cn6)CC5)CCC4)cc3)CC2)c(F)c1 (stereo not shown)
Out: > 8.00

In: Another: Cc1nc2ccc(-c3ccnc(N)c3)nc2n1-c1cc(F)c(N2CCN(C3CN(CC#Cc4ccc(N5CCC(C(=O)N6CCC(n7cc(CNc8cccc9c8C(=O)N(C8CCC(=O)NC8=O)C9=O)cn7)CC6)CC5)nc4)C3)CC2)c(F)c1 (stereo not shown)
Out: > 8.00

In: Same for Cc1nc2ccc(-c3ccnc(N)c3)nc2n1-c1cc(F)c(N2CCN(C3CCN(CC#Cc4ccc(N5CCC(C(=O)N6CCC(n7cc(CNc8cccc9c8C(=O)N(C8CCC(=O)NC8=O)C9=O)cn7)CC6)CC5)nc4)CC3)CC2)c(F)c1 (stereo not shown)
Out: > 8.00

---

# target: DYRK1B (Homo sapiens)
# Construct: purchased Eurofins; host or cells: E. coli BL21-derived (T7 phage display) or HEK-293
# Sequence (Q9Y463 whole entry, species assumed): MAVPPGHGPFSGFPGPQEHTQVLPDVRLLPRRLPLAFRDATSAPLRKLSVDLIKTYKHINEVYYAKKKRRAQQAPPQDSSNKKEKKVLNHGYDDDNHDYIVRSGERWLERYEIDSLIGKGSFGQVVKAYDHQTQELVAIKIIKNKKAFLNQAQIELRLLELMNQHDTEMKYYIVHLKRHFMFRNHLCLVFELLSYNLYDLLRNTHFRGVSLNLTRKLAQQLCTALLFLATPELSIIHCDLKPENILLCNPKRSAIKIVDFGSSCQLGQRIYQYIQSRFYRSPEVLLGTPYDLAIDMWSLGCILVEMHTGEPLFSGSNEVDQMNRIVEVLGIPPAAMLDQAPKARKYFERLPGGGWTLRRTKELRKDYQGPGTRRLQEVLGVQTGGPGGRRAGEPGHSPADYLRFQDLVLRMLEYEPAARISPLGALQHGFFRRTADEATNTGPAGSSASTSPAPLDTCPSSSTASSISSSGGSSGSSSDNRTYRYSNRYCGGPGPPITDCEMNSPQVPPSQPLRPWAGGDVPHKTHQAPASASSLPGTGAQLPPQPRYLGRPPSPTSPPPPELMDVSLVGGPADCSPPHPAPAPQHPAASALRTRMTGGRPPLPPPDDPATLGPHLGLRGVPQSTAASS
# assay-overview: KdELECT kinase binding assay (Eurofins), DYRK1B
# protocol-conditions: 11-point 3-fold dilution series, qPCR readout; read-out: Binding Affinity (Kd) DYRK1B
The following compounds are shown together with reported Kd values.

Reference set (3 entries):
compound: Cc1nc2ccc(-c3ccnc(N)c3)nc2n1-c1ccc(N2CCN(CCC#Cc3ccc(N4CCC(C(=O)N5CCC(n6cc(CNc7cccc8c7C(=O)N(C7CCC(=O)NC7=O)C8=O)cn6)CC5)CC4)nc3)CC2)c(F)c1 (stereo not shown)
Kd: 0.01 to 0.1 µM
//
compound: Cc1nc2ccc(-c3ccnc(N)c3)nc2n1-c1ccc(N2C[C@@H]3C[C@H]2CN3CC#Cc2ccc(N3CCC(C(=O)N4CCC(n5cc(CNc6cccc7c6C(=O)N(C6CCC(=O)NC6=O)C7=O)cn5)CC4)CC3)nc2)c(F)c1 (stereo partly shown)
Kd: 0.01 to 0.1 µM
//
compound: Cc1nc2ccc(-c3ccnc(N)c3)nc2n1-c1ccc(CN2CCN(CC#Cc3ccc(N4CCC(C(=O)N5CCC(n6cc(CNc7cccc8c7C(=O)N(C7CCC(=O)NC7=O)C8=O)cn6)CC5)CC4)nc3)CC2)cc1 (stereo not shown)
Kd: < 0.01 µM

Now examine the next entry.
In: Consider the compound shown here: COc1cc(-n2c(C)nc3ccc(-c4ccnc(N)c4)nc32)ccc1N1CCN(CCC#Cc2ccc(N3CCC(C(=O)N4CCC(n5cc(CNc6cccc7c6C(=O)N(C6CCC(=O)NC6=O)C7=O)cn5)CC4)CC3)nc2)CC1 (stereo not shown) What is its recorded Kd?
Out: 0.01 to 0.1 µM

---

Observed Kd values for DYRK1A (Homo sapiens, UniProt Q13627) are listed in what follows.

In: Value lookup for Kd; key = Cc1nc2ccc(-c3ccnc(N)c3)nc2n1-c1ccc(N2CCN(C(=O)CCN3CCN(Cc4ccc(CNc5cccc6c5CN(C5CCC(=O)NC5=O)C6=O)cc4)CC3)CC2)c(F)c1 (centres unmarked)
Out: 0.01 to 0.1 µM

In: Try the compound Cc1nc2ccc(-c3ccnc(N)c3)nc2n1-c1ccc(N2CCN(CCOCCOCCOCCC(=O)N3CCN(c4ccc5c(c4)C(=O)N(C4CCC(=O)NC4=O)C5=O)CC3)CC2)c(F)c1 (centres unmarked)
Out: < 0.01 µM

In: Same thing, different compound: Cc1nc2ccc(-c3ccnc(N)c3)nc2n1-c1ccc(N2CCN(CCOCCOCCOCCOCCNc3cc4c(cc3F)C(=O)N(C3CCC(=O)NC3=O)C4=O)CC2)c(F)c1 (centres unmarked)
Out: 0.01 to 0.1 µM

In: Now consider Cc1nc2ccc(-c3ccnc(N)c3)nc2n1-c1ccc(N2C3CCC2CN(CC#Cc2ccc(N4CCC(C(=O)N5CCC(n6cc(CNc7cccc8c7C(=O)N(C7CCC(=O)NC7=O)C8=O)cn6)CC5)CC4)nc2)C3)c(F)c1 (centres unmarked) .
Out: 0.01 to 0.1 µM

In: Note, next up: Cc1nc2ccc(-c3ccnc(N)c3)nc2n1-c1ccc(N2CCN(C(=O)CN3CCC(CC(=O)N4CCC(n5cc(CNc6cccc7c6C(=O)N(C6CCC(=O)NC6=O)C7=O)cn5)CC4)CC3)CC2)c(F)c1 (centres unmarked)
Out: < 0.01 µM
